Cited source: paper PMC9482650

Target: T1, TX1BP3, O14907
T1 sequence (O14907 10-122, limits assumed, looked up): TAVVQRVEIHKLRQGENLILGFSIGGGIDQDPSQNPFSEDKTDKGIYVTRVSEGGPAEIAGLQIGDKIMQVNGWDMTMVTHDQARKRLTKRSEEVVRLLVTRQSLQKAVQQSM
Test: holdup assay
Parameters: key: below the threshold = too weak to quantify, mostly under pKd 3.1 to 4
Settings: plain residues with an end cap or a label only (N-terminal biotin on a linker: ado-ado)
reported_property: pKd
Hey, just send me the number, nothing else.

LESTTVGTSV [KARS1, Q15046]
3.6

// pKd lookup, key: ELSATVTTDC [TRIP6, Q15654]
3.48

// pKd lookup, key: VKRNSKETVV [MARCHF3, Q86UD3]
4.16

// pKd lookup, key: DRIQSCLSDA [SBF1, O95248]
4.04

// pKd lookup, key: VLYPREGTEV [FOXI1, Q12951]
3.73

// pKd lookup, key: AAVENKVTDL [PLXNB1, O43157]
4.77
